Where do the numbers come from? From patent EP1200395B1.

- TARGET_ENTITY: CCR-3 (Homo sapiens, UniProt P51677)
- ASSAY_OVERVIEW: Eotaxin-induced chemotaxis of CCR-3 transfectant cells (CCR3/U937)
- Format: cell-based
- Set-up: expressed in transfected cells; host or cells: U937
- MEASUREMENT_SETUP: test compound 0.1 µg/ml; eotaxin 1 x 10^-9 M; CCR3/U937 transfectants; 37 °C, 1 hour
Short version: Chemotaxis Assay 0.1 µg/ml (inhibition %) at least 90% is yes, less is no.

# COMPOUND, LABEL_VALUE
data = [
    ("CC[N+](CCCNC(=O)Nc1ccccc1)(CCOCCOC)CCc1ccc(Cl)c(Cl)c1.[I-] (stereo not shown) [compound 415]", "yes"),
    ("CC[N+](CCCNC(=O)Nc1ccc(C#N)cc1)(CCOCCOC)CCc1cccc(OC)c1.[I-] (stereo not shown) [compound 392]", "no"),
    ("CC[N+](CCF)(CCCNC(=O)Nc1ccc(Cl)c(Cl)c1)CCc1cccc(Cl)c1.[I-] (stereo not shown) [compound 369]", "no"),
    ("CC[N+](CCCNC(=O)Nc1ccc(Br)cc1)(CCOCCOC)CCc1ccc(Cl)cc1Cl.[I-] (stereo not shown) [compound 374]", "yes"),
    ("CC[N+](CCF)(CCCNC(=O)Nc1ccc(Br)cc1)CCc1ccc(Cl)c(Cl)c1.[I-] (stereo not shown) [compound 384]", "no"),
    ("CC[N+](CCCNC(=O)Nc1ccccc1)(CCc1ccc(Cl)cc1Cl)CC(N)=O.[I-] (stereo not shown) [compound 409]", "no"),
    ("CC[N+](CCF)(CCCNC(=O)Nc1ccc(OC)cc1)CCc1ccc(Cl)c(Cl)c1.[I-] (stereo not shown) [compound 453]", "no"),
    ("CC[N+](CCF)(CCCNC(=O)Nc1ccc(Cl)c(Cl)c1)CCc1cccc(F)c1.[I-] (stereo not shown) [compound 371]", "no"),
    ("C=C(C)C[N+](CC)(CCCNC(=O)Nc1ccccc1)CCc1ccc(Cl)c(Cl)c1.[I-] (stereo not shown) [compound 425]", "yes"),
    ("CC[N+](CCF)(CCCNC(=O)Nc1ccc(Br)cc1)CCc1ccc(Cl)cc1Cl.[I-] (stereo not shown) [compound 383]", "no"),
    ("CCC(CC)C[N+](CC)(CCCNC(=O)Nc1ccc(OC)cc1)CCc1cccc(Cl)c1.[I-] (stereo not shown) [compound 448]", "no"),
    ("CC[N+](CCCNC(=O)Nc1ccccc1)(CCOCCOC)CCc1cccc(F)c1.[I-] (stereo not shown) [compound 416]", "no"),
    ("CC[N+](CCF)(CCCNC(=O)Nc1ccc(C(F)(F)F)cc1)CCc1cccc(Cl)c1.[I-] (stereo not shown) [compound 391]", "no"),
    ("CC[N+](CCCNC(=O)Nc1ccc(C(F)(F)F)cc1)(CCOCCOC)CCc1cccc(Cl)c1.[I-] (stereo not shown) [compound 387]", "yes"),
]

----------
Reported Ca^2+ mobilization 6.25 µg/ml (inhibition %) values for a set of molecules
- TARGET_ENTITY: UniProtKB P51677
- Sequence (P51677 1-355): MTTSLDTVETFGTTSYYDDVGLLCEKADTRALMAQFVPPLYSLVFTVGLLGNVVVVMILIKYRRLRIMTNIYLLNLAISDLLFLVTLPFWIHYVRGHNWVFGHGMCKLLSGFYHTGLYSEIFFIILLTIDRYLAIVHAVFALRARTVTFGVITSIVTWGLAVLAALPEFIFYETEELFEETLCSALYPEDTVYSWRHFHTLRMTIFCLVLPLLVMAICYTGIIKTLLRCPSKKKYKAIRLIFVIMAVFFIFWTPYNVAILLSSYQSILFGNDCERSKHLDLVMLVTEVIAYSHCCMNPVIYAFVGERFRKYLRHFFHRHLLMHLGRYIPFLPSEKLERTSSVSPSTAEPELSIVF
- ASSAY_OVERVIEW: Calcium mobilization assay (inhibition of eotaxin-induced intracellular calcium mobilization in CCR3/HEK293 cells)
- Type: cell-based
- Set-up: expressed in transfected cells
- MEASUREMENT_SETUP: 6.25 µg/ml test compound; eotaxin 10 nM; CCR3/HEK293 cells (Table 2a)
PARAMETER: Ca^2+ mobilization 6.25 µg/ml (inhibition %)

# MOLECULE, TARGET_ENTITY, UOM, NUMBER
rows = [
    ("CCOC(=O)C1CC1CN(CCCNC(=O)Nc1cccc2ccccc12)CCc1ccccc1 (stereo not shown)", "UniProtKB P51677", "%", 50),
    ("Cc1ccc(CCN(CCCNC(=O)Nc2cccc(Cl)c2)CCOCc2ccccc2)cc1", "UniProtKB P51677", "%", 54),
    ("O=C(NCCCN(CCc1c[nH]cn1)CC1CCCCC1)Nc1cccc(Cl)c1", "UniProtKB P51677", "%", 51),
    ("CC(C)CN(CCCNC(=O)Nc1ccc(Br)cc1)CCc1c[nH]cn1", "UniProtKB P51677", "%", 58),
]

----------
- TARGET_ENTITY: CCR-3 (Homo sapiens, UniProt P51677)
- ASSAY_OVERVIEW: Eotaxin-induced chemotaxis of CCR-3 transfectant cells (CCR3/U937)
- Assay type: cell-based
- Set-up: expressed in transfected cells; host or cells: U937
- MEASUREMENT_SETUP: 10 µM test compound; eotaxin 1 x 10^-9 M; CCR3/U937 cells (Table 3a)
PARAMETER: Chemotaxis Assay 10 µM (inhibition %)

# MOLECULE, PARAMETER, NUMBER
data = [
    ("COc1ccc(NC(=O)NCCCN(CCCC(=O)O)C2CCCc3ccccc32)cc1 (stereo not drawn) [Compound 88]", "Chemotaxis Assay 10 µM (inhibition %)", 100),
    ("COC(=O)CCCN(CCCNC(=O)Nc1ccc(Cl)c(Cl)c1)C1CCCc2ccccc21 (stereo not drawn) [Compound 35]", "Chemotaxis Assay 10 µM (inhibition %)", 100),
    ("CCN(CCCCCNC(=O)Nc1ccccc1)CCc1ccc(Cl)cc1 [Compound 8]", "Chemotaxis Assay 10 µM (inhibition %)", 94),
    ("COC(=O)CCCN(CCCNC(=O)Nc1ccc(OC)cc1OC)C1CCCc2ccccc21 (stereo not drawn) [Compound 55]", "Chemotaxis Assay 10 µM (inhibition %)", 38),
    ("COC(=O)CCCN(CCCNC(=O)Nc1ccc(Br)cc1)Cc1ccc2c(c1)OCO2 [Compound 40]", "Chemotaxis Assay 10 µM (inhibition %)", 88),
    ("CCN(CCCNC(=O)Nc1ccccc1)CCc1ccc(C)cc1 [Compound 231]", "Chemotaxis Assay 10 µM (inhibition %)", 90),
    ("NC(=O)CN(CCCNC(=O)Nc1ccccc1)CCc1ccc(Cl)cc1 [Compound 220]", "Chemotaxis Assay 10 µM (inhibition %)", 77),
    ("C=CCN(CCCNC(=O)Nc1ccccc1)CCc1ccc(Cl)cc1 [Compound 221]", "Chemotaxis Assay 10 µM (inhibition %)", 100),
    ("COC(=O)CCCN(CCCNC(=O)Nc1ccc(C(=O)O)cc1)C1CCCc2ccccc21 (stereo not drawn) [Compound 225]", "Chemotaxis Assay 10 µM (inhibition %)", 100),
    ("CC(C)N(CCCNC(=O)Nc1ccccc1)CCc1ccc(Cl)cc1 [Compound 276]", "Chemotaxis Assay 10 µM (inhibition %)", 100),
    ("N#Cc1cccc(NC(=O)NCCCN(CCCC(=O)O)C2CCCc3ccccc32)c1 (stereo not drawn) [Compound 260]", "Chemotaxis Assay 10 µM (inhibition %)", 100),
    ("COC(=O)CCCN(CCCNC(=O)Nc1ccc(Br)cc1)C1CCc2ccccc21 (stereo not drawn) [Compound 176]", "Chemotaxis Assay 10 µM (inhibition %)", 75),
    ("COC(=O)CCCN(CCCNC(=O)Nc1ccc(Br)cc1)[C@H](C)c1ccccc1 [Compound 30]", "Chemotaxis Assay 10 µM (inhibition %)", 100),
    ("COC(=O)CCCN(CCCNC(=O)Nc1ccc(Br)cc1)[C@@H]1CCCc2ccccc21 [Compound 180]", "Chemotaxis Assay 10 µM (inhibition %)", 100),
    ("COc1ccc(NC(=O)NCCCN(CCCC(=O)O)C2CCCc3ccccc32)c(OC)c1 (stereo not drawn) [Compound 86]", "Chemotaxis Assay 10 µM (inhibition %)", 37),
    ("O=C(O)CCCN(CCCNC(=O)Nc1ccc(Br)cc1)C(Cc1ccccc1)c1ccccc1 (stereo not drawn) [Compound 75]", "Chemotaxis Assay 10 µM (inhibition %)", 68),
    ("COc1cccc(NC(=O)NCCCN(CCCC(=O)O)C2CCCc3ccccc32)c1 (stereo not drawn) [Compound 261]", "Chemotaxis Assay 10 µM (inhibition %)", 100),
]

----------
Entries and their measured Chemotaxis Assay 0.1 µg/ml (inhibition %) follow.
- TARGET_ENTITY: CCR-3 (Homo sapiens)
- ASSAY_OVERVIEW: Eotaxin-induced chemotaxis of CCR-3 transfectant cells (CCR3/U937)
- Assay type: cell-based
- Parameters: expressed in transfected cells; host or cells: U937
- MEASUREMENT_SETUP: test compound 0.1 µg/ml; eotaxin 1 x 10^-9 M; CCR3/U937 transfectants; 37 °C, 1 hour
PARAMETER: Chemotaxis Assay 0.1 µg/ml (inhibition %)

# MOLECULE, NUMBER
data = [
    ("CC[N+](CCCNC(=O)Nc1ccccc1)(CCc1cccc(Cl)c1)CCC(C)C.[I-] (stereo not shown) [compound 407]", 52),
    ("CC[N+](CCCNC(=O)Nc1ccccc1)(CCc1cccc(F)c1)CC1CCC1.[I-] (stereo not shown) [compound 421]", 66),
    ("CC[N+](CCF)(CCCNC(=O)Nc1ccc(OC)cc1)CCc1cccc(Cl)c1.[I-] (stereo not shown) [compound 451]", 92),
    ("CC[N+](CC#N)(CCCNC(=O)Nc1ccccc1)CCc1cccc(Cl)c1.[I-] (stereo not shown) [compound 411]", 42),
]
